- Assayed target: NAD-dependent protein deacetylase sirtuin-2 (Homo sapiens, UniProt Q8IXJ6)
- Sequence (Q8IXJ6 whole entry): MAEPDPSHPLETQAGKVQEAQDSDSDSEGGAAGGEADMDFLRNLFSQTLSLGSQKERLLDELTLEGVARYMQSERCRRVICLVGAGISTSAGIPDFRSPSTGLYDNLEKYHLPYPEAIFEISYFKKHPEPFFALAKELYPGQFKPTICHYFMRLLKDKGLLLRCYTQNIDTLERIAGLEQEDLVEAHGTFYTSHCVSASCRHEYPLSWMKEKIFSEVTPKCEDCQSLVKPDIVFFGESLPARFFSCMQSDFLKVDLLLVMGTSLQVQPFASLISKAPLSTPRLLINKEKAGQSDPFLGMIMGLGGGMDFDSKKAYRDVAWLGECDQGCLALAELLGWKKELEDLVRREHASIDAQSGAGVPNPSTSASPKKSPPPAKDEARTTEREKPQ
- Run description: Non-competitive inhibition of human recombinant SIRT2 using Z-QPK(Me)2K(Ac) as substrate assessed as decrease in maximal enzyme activity preincubated for 60 mins followed by substrate addition measured after 30 mins by double-reciprocal plot analysis in presence of 5 mM NAD+
- Condition description: read-out: Ki(app)
Recorded metric: Ki (nM)

> print(dat)
                              line.notation                            assayed.target  endpoint.value
1  CCCCCCCCn1c2c(c3cc(-c4ccc(S(C)(=O)=O)cc4)ccc31)CNCC2  NAD-dependent protein deacetylase sirtuin-2 (Homo sapiens, UniProt Q8IXJ6)            2280

###

Collected Activity values appear next to each entry.
- Run description: Self-aggregation of the compound in PBS assessed as derived light scattering count rate at 1 uM at pH 7.4 (reference value: 15.5 +/- 0.4 kilocount/sec)
- Assay type: physicochemical
- Condition description: buffer, pH 7.4, 1 µM
Recorded metric: Activity (kC/sec)

> print(dat)
                               line.notation  endpoint.value
 1  CCCCCCCCn1c2c(c3cc(-c4cccc(C)c4)ccc31)CN(C(N)=O)CC2              19
 2  CCCCCCCCn1c2c(c3cc(-c4ccc(S(C)(=O)=O)cc4)ccc31)CN(C)CC2              17
 3  CCCCCCCCn1c2c(c3cc(-c4cccc(C)c4)ccc31)CN(C)CC2            17.9
 4  CCCCCCCCn1c2c(c3cc(-c4ccc(S(C)(=O)=O)cc4)ccc31)CN(C(N)=O)CC2            15.6
 5  CCCCCCCCn1c2c(c3cc(-c4cnc(N)nc4)ccc31)CN(C)CC2            15.8
 6  CCCCCCCCn1c2c(c3cc(-c4cccc(C)c4)ccc31)CN(Cc1ccccc1)CC2              32
 7  CCCCCCCCn1c2c(c3cc(-c4ccc(S(C)(=O)=O)cc4)ccc31)CNCC2            15.6
 8  CCCCCCCCn1c2c(c3cc(-c4cccc(C)c4)ccc31)CN(C(C)C)CC2              27
 9  CCCCCCCCn1c2c(c3cc(-c4cnc(N)nc4)ccc31)CNCC2            16.1
10  CCCCCCCCn1c2c(c3cc(-c4cnc(N)nc4)ccc31)CN(C(C)C)CC2            16.8

###

- Assayed target: NAD-dependent protein deacetylase sirtuin-1 (Homo sapiens)
- Run description: Inhibition of human recombinant SIRT1 assessed as deacetylation of N-acetyl lysine residue in p53 (317 to 320) after 30 mins by luciferase-mediated luminescence assay
Recorded metric: IC50 (µM)

> print(dat)
                              line.notation  recorded.metric  comparison.sign  endpoint.value
1  CCCCCCCCn1c2c(c3cc(-c4cccc(C)c4)ccc31)CN(C)CC2             IC50                =              21
2  CCCCCCCCn1c2c(c3cc(-c4cnc(N)nc4)ccc31)CNCC2             IC50                =              38
3  CCCCCCCCn1c2c(c3cc(-c4cnc(N)nc4)ccc31)CN(C)CC2             IC50                >             100
4  CCCCCCCCn1c2c(c3cc(-c4ccc(S(C)(=O)=O)cc4)ccc31)CN(C(N)=O)CC2             IC50                =              28
5  CCCCCCCCn1c2c(c3cc(-c4cnc(N)nc4)ccc31)CN(C(C)C)CC2             IC50                =              56
6  CCCCCCCCn1c2c(c3cc(-c4cnc(N)nc4)ccc31)CN(C(N)=O)CC2             IC50                =              63
7  CCCCCCCCn1c2c(c3cc(-c4ccc(S(C)(=O)=O)cc4)ccc31)CN(C)CC2             IC50                >             250

###

- Organism: Homo sapiens
- Run description: Inhibition of protease (unknown origin) using deacetylated peptide as substrate assessed as luminescence at 10 uM after 30 mins relative to control
- Design: scale not given: the % may be the effect or the level left
Collected Activity values appear next to each entry.
Recorded metric: Activity (%)

> print(dat)
                               line.notation  recorded.metric  endpoint.value
 1  CCCCCCCCn1c2c(c3cc(-c4ccc(S(C)(=O)=O)cc4)ccc31)CNCC2         Activity            96.5
 2  CCCCCCCCn1c2c(c3cc(-c4cccc(C)c4)ccc31)CN(C)CC2         Activity            98.6
 3  CCCCCCCCn1c2c(c3cc(-c4cnc(N)nc4)ccc31)CN(C)CC2         Activity            98.7
 4  CCCCCCCCn1c2c(c3cc(-c4cccc(C)c4)ccc31)CN(Cc1ccccc1)CC2         Activity              99
 5  CCCCCCCCn1c2c(c3cc(-c4cccc(C)c4)ccc31)CN(C(N)=O)CC2         Activity            97.1
 6  CCCCCCCCn1c2c(c3cc(-c4ccc(S(C)(=O)=O)cc4)ccc31)CN(C(N)=O)CC2         Activity            98.6
 7  CCCCCCCCn1c2c(c3cc(-c4ccc(S(C)(=O)=O)cc4)ccc31)CN(C)CC2         Activity            97.8
 8  CCCCCCCCn1c2c(c3cc(-c4cccc(C)c4)ccc31)CN(C(C)C)CC2         Activity             100
 9  CCCCn1c2c(c3cc(-c4ccc(S(C)(=O)=O)cc4)ccc31)CNCC2         Activity            98.6
10  CCCCCCCCn1c2c(c3cc(-c4cnc(N)nc4)ccc31)CNCC2         Activity            96.3

###

- Assayed target: NAD-dependent protein deacetylase sirtuin-1 (Homo sapiens)
- Sequence (whole entry): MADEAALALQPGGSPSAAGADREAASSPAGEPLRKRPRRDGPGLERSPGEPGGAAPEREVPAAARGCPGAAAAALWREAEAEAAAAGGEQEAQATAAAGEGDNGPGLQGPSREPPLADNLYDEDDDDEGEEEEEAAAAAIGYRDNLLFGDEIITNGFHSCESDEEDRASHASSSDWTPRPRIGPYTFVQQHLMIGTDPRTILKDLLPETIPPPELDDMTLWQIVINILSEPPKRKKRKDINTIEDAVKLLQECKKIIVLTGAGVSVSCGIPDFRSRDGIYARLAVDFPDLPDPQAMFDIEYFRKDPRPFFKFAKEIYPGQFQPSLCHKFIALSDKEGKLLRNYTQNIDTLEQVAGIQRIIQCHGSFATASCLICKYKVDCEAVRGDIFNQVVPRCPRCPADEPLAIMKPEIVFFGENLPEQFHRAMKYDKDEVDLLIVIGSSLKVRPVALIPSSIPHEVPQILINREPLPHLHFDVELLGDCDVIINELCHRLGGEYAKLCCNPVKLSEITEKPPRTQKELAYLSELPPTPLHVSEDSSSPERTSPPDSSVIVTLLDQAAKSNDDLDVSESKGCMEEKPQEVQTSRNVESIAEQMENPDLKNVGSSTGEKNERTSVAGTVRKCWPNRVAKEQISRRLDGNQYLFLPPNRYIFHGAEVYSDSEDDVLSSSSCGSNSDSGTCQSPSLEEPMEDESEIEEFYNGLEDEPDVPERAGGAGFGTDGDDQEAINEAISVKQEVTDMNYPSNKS
- Run description: Inhibition of human recombinant SIRT1 assessed as deacetylation of N-acetyl lysine residue in p53 (317 to 320) at 10 uM after 30 mins by luciferase-mediated luminescence assay relative to control
Collected inhibition values appear next to each entry.
Recorded metric: inhibition

> print(dat)
                              line.notation  endpoint.value
1  CCCCCCCCn1c2c(c3cc(-c4cnc(N)nc4)ccc31)CNCC2            2.4%
2  CCCCCCCCn1c2c(c3cc(-c4ccnc(F)c4)ccc31)CNCC2            1.1%
3  CCCCCCCCn1c2c(c3cc(-c4ccc(S(C)(=O)=O)cc4)ccc31)CN(C(N)=O)CC2           51.8%
4  CCCCCCCCn1c2c(c3cc(-c4ccc(S(C)(=O)=O)cc4)ccc31)CN(C)CC2           12.8%
